Tested on: RARb:RXRa (NR concentration 270 nM, RXRa partner concentration 90 nM)
Test summary: PBM binding z-score (relative to random genomic background probes); higher = stronger binding; sequences stand for … in GC…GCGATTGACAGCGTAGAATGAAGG
If the reported PBM binding z-score equals or exceeds 2, assign Met. If not, assign Not met.

Example cases with answers are listed next.
biosequence=TCGTGTAGATCAACAGGAGGTTAAGAAAGATCGA target_of_assay="RARb:RXRa (NR concentration 270 nM, RXRa partner concentration 90 nM)" label_class="Not met"
biosequence=CGAACTAGGTCGGAACAGGACAGTGAAGGATGAT target_of_assay="RARb:RXRa (NR concentration 270 nM, RXRa partner concentration 90 nM)" label_class="Not met"
biosequence=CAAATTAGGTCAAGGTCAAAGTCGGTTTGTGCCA target_of_assay="RARb:RXRa (NR concentration 270 nM, RXRa partner concentration 90 nM)" label_class=Met
biosequence=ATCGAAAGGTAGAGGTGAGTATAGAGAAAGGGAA target_of_assay="RARb:RXRa (NR concentration 270 nM, RXRa partner concentration 90 nM)" label_class="Not met"
biosequence=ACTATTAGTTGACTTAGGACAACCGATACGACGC target_of_assay="RARb:RXRa (NR concentration 270 nM, RXRa partner concentration 90 nM)" label_class="Not met"

Query: Check this sequence for PBM binding z-score at or above 2: CCTAGTTGGTCAGGAGGTCACACGCCGGATATGA
Response: Met

Query: Check this sequence for PBM binding z-score at or above 2: CCTAGCAGGCCAATCTGGGTCACTTAAGGCTTGA
Response: Not met

Query: Check this sequence for PBM binding z-score at or above 2: ATACCAAGGTGATCGTGGGGTCGTTGATACTAAC
Response: Not met

Query: Check this sequence for PBM binding z-score at or above 2: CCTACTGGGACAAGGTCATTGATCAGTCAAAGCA
Response: Met

Query: Check this sequence for PBM binding z-score at or above 2: CCGACCGGGGCAAAGGTTACCATACTCAGTACGA
Response: Met

Query: Check this sequence for PBM binding z-score at or above 2: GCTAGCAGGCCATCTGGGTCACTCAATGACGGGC
Response: Not met

Query: Check this sequence for PBM binding z-score at or above 2: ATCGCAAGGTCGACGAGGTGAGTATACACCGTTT
Response: Met

Query: Check this sequence for PBM binding z-score at or above 2: TTACCAAGGTGAAAGGTTGTTGATGCACGCCTTG
Response: Not met

###

Test system: RARb:RXRa (NR concentration 270 nM, RXRa partner concentration 90 nM)
Test summary: PBM binding z-score (relative to random genomic background probes); higher = stronger binding; sequences stand for … in GC…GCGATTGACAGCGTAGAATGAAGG
Listing: PBM binding z-score of selected sequences
// return a plain number; no unit text

biosequence=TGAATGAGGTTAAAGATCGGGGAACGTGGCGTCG readout_type="PBM binding z-score" value_observed=2.15
biosequence=CCTACTGGGCAAAAGGTCATTGATTCCAATGCTC readout_type="PBM binding z-score" value_observed=4.35
biosequence=ATGTGTAGGTTAGCTGGGGTCATTCAGACTAGGC readout_type="PBM binding z-score" value_observed=3.25
biosequence=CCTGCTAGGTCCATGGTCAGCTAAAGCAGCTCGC readout_type="PBM binding z-score" value_observed=0.441
biosequence=ATCTCTAGGTAAAAGTTCAGTCAATCCCGAGGAT readout_type="PBM binding z-score" value_observed=2.64

Moving on to another sequence below.
Query: Dear colleague, I am looking for the recorded PBM binding z-score of the following sequence: ATATGTAGGTTATGGGTCATTCAGGTTGGTTCGC
Response: 2.52
